system_name: Streptavidin (Streptomyces avidinii)
measurement_protocol: streptavidin binders on small-molecule microarray, primary screen, artefact control for SMM compound annotation, biophysical, 635/667 nm fluorescence (AID 1147);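 note: signal reflects streptavidin binding to arrayed compounds as a control protein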
condition_info: streptavidin binding, higher = more signal

{"molecule": "C[C@]1(C(=O)O)c2ccccc2C(=O)N(Cc2cc(C(F)(F)F)cc(C(F)(F)F)c2)[C@H]1c1ccc(CO)cc1", "composite z-score": 1.41}
{"molecule": "COc1ccc([Si](C)(C)[C@H]2[C@H](CC(=O)N(CCO)Cc3ccccc3)O[C@@]3(C(=O)N(c4ccccc4)c4ccccc43)[C@@H]2C)cc1", "composite z-score": 0.862}
{"molecule": "CC1CC/C=C\\[C@H]2OC34C=CCN(CCN5CCOCC5)C(=O)[C@H]3N(C(CO)C(C)C)C(=O)[C@@H]4C2C(=O)O1 (stereo partly drawn)", "composite z-score": -0.0429}
{"molecule": "COc1ccc([Si](C)(C)[C@H]2[C@H](CC(=O)N3CCC[C@H]3CO)O[C@@]3(C(=O)N(C)c4c(Br)cc(C)cc43)[C@@H]2C)cc1", "composite z-score": 3.28}
{"molecule": "COc1ccc(C(O)C2C=CC3C(=O)N(c4ccccc4)C(=O)C3N2Nc2ccccc2F)c2ccccc12 (stereo not drawn)", "composite z-score": 2.38}
{"molecule": "C=C1C(=O)C=C2CN(C(=O)c3ccccc3)[C@@](Cc3ccc(F)cc3)(C(=O)OC)[C@@H]12", "composite z-score": 1.87}
{"molecule": "CCCCN1CC=CC23O[C@@H]4C=CCCOC(=O)C4[C@H]2C(=O)N(CCO)[C@@H]3C1=O (stereo partly drawn)", "composite z-score": -0.434}
{"molecule": "CCCCCN1CC=CC23O[C@@H]4/C=C\\CCCOC(=O)C4[C@H]2C(=O)N(CCCCCO)[C@@H]3C1=O (stereo partly drawn)", "composite z-score": -0.878}
{"molecule": "O=C1C2C=CC(C(O)C3CC=CCC3)N(Nc3ccc([N+](=O)[O-])cc3)C2C(=O)N1c1ccccc1 (stereo not drawn)", "composite z-score": 0.941}
{"molecule": "O=C1NC(=O)C2C1C=CC(C(O)C1CCCCC1)N2Nc1ccccn1 (stereo not drawn)", "composite z-score": -0.15}
{"molecule": "COC(=O)[C@@]1(Cc2ccc(OC)cc2)[C@@H]2[C@@H](CC(=O)[C@H]2CC(=O)C(=O)N(C)C)CN1C(=O)c1ccccc1", "composite z-score": 1.79}
{"molecule": "C=CC[C@@]1(C(=O)NCCCOC)N=C(c2ccc(OCCCO)cc2)O[C@@H]1c1ccccc1CN=[N+]=[N-]", "composite z-score": 0.706}
{"molecule": "CC(C)c1ccc(NN2C(C(O)C3=C[C@H]4C[C@@H](C3)C4(C)C)C=CC3C(=O)N(c4ccccc4)C(=O)C32)cc1 (stereo partly drawn)", "composite z-score": 1.56}
{"molecule": "CCCCC(=C=CC[C@@H](O)c1ccc(OCCO)cc1)CCO", "composite z-score": -0.217}
{"molecule": "CC1(C)OB(/C=C\\CC(OC(=O)c2ccncc2)c2ccccc2)OC1(C)C (stereo not drawn)", "composite z-score": -0.452}
{"molecule": "O=C(N1CCOCC1)[C@]1(CCS(=O)(=O)c2ccccc2)N=C(c2ccc(OCCCO)cc2)O[C@@H]1c1ccccc1", "composite z-score": 0.947}
{"molecule": "COc1cccc(C)c1NC(=O)O[C@H]1[C@H](OC(=O)Nc2ccc3c(c2)OCO3)[C@H](OC(=O)Nc2ccc3c(c2)OCO3)[C@@H](OC)O[C@@H]1CO", "composite z-score": 1.2}
{"molecule": "C=C(COC)/C(=C/C[C@@H](OC(C)=O)c1cccc(OCCO)c1)c1cnc2ccccc2c1", "composite z-score": 0.897}
{"molecule": "COC(=O)C1(CC(C)C)C=C2C(=C(C)C(=O)C2C)CN1 (stereo not drawn)", "composite z-score": 0.351}
{"molecule": "CC(C)c1ccc(NN2C(C(O)C3CCCCC3)C=CC3C(=O)N(c4ccccc4)C(=O)C32)cc1 (stereo not drawn)", "composite z-score": 1.88}
{"molecule": "CN(C)C(=O)[C@]1(CCS(=O)(=O)c2ccccc2)N=C(c2ccc(OCCCO)cc2)O[C@@H]1c1ccccc1CN=[N+]=[N-]", "composite z-score": 1.54}
{"molecule": "COC(=O)[C@@]1(Cc2ccccc2)[C@H]2c3cc(C(=O)N(C)C)n(CCF)c3C[C@H]2CN1C(=O)c1ccccc1", "composite z-score": 1.74}
{"molecule": "CCOC(=O)C1=CCC(c2ccncc2)N(S(=O)(=O)c2ccc(C)cc2)C1 (stereo not drawn)", "composite z-score": 3.08}

----------
measurement_protocol: HepG2 liver cancer cell viability effects, profiling panel, resazurin fluorescence, 24 h, PK04 Diversity Set (AID 1172); note: test concentration not given here
condition_info: higher = more signal
Label scheme for z-score: LOW (below -0.7), MID (-0.7 to below 0.03), HIGH (0.03 or more)

{"compound": "O=C1O[C@H](c2ccccc2)[C@H](c2ccccc2)N2[C@H]1[C@@H](C(=O)N1CCCCCCC1)[C@]1(C(=O)Nc3ccc(C#CCCO)cc31)[C@H]2c1ccc(O)cc1", "class": "HIGH"}
{"compound": "C[C@@]1([C@@H](NS(=O)(=O)c2cccc3cccnc23)c2ccc(-c3ccccc3)cc2)C[C@H]1C1CCCCC1", "class": "LOW"}
{"compound": "O=C1O[C@H](c2ccccc2)[C@H](c2ccccc2)N2[C@H]1[C@@H](C(=O)N1CCN(c3ncccn3)CC1)[C@]1(C(=O)Nc3ccc(C#CC4(O)CCCCCC4)cc31)[C@H]2c1ccc(O)cc1", "class": "HIGH"}
{"compound": "C[C@H]1C2[C@H](Cc3ccccc3)NC(=O)[C@]23C(=O)N[C@@H](Cc2ccccc2)C(=O)N2CCC[C@H]2C(=O)NC/C=C/CC/C=C/C3[C@@H]2O[C@]12C (some centres undefined)", "class": "MID"}
{"compound": "CC(C)N1C(=O)[C@@]2(Cc3ccccc31)c1ccccc1C(=O)N(Cc1ccccc1)[C@H]2c1ccc(CO)cc1", "class": "MID"}
{"compound": "[N-]=[N+]=Nc1ccccc1C[C@]1(C(=O)N2CCCCC2)N=C(c2ccc(OCCCO)cc2)O[C@H]1c1ccccc1", "class": "MID"}
{"compound": "O=C1C2C=CC(C(O)C(c3ccccc3)c3ccccc3)N(Nc3ccccc3F)C2C(=O)N1c1ccccc1 (centres undefined)", "class": "MID"}
{"compound": "CO[C@H]1O[C@H](CO)[C@@H](OC(=O)Nc2cccc(F)c2)[C@H](OC(=O)c2cc3ccccc3[nH]2)[C@H]1OC(=O)c1cc2ccccc2[nH]1", "class": "LOW"}
{"compound": "CN1C(=O)C2C=CC(C(O)c3cccs3)N(N(c3ccccc3)c3ccccc3)C2C1=O (centres undefined)", "class": "MID"}
{"compound": "C=CC[C@]1(C(=O)NCC(O)CO)N=C(c2ccc(OCCCO)cc2)O[C@H]1c1ccccc1CN=[N+]=[N-] (some centres undefined)", "class": "LOW"}
{"compound": "COC(=O)c1c2oc(c1C(=O)OC)C(=O)N[C@H](Cc1ccccc1)Cn1cc(nn1)C1(CCCCC1)NC(=O)N[C@H](CO)CC2", "class": "HIGH"}
{"compound": "CCN1C(=O)C2CC(=O)C3C(CN(S(=O)(=O)c4ccc(C)cc4)C3c3ccc(C)cc3)C2C1=O (centres undefined)", "class": "LOW"}
{"compound": "O=C(O)C1=CC[C@H]2C(=O)N(c3ccccc3)C(=O)[C@@H]12", "class": "MID"}
{"compound": "COC(=O)C(CC#Cc1ccc2c(c1)[C@]1(C(=O)N2)[C@H](c2ccc(OCCO)cc2)N2[C@H](c3ccccc3)[C@H](c3ccccc3)OC(=O)[C@H]2[C@@H]1C(N)=O)C(=O)OC", "class": "MID"}
{"compound": "CC(C)c1ccc(NN2C(C(O)c3ccccc3)C=CC3C(=O)N(c4ccccc4)C(=O)C32)cc1 (centres undefined)", "class": "HIGH"}
{"compound": "CCOC(=O)C1=CCC(c2ccncc2)N(S(=O)(=O)c2ccc(C)cc2)C1 (centres undefined)", "class": "MID"}
{"compound": "COC(=O)[C@]1(Cc2ccccc2N=[N+]=[N-])N=C(c2ccc(OCCCO)cc2)O[C@@H]1c1ccccc1CN=[N+]=[N-]", "class": "LOW"}
{"compound": "COCCOC(=O)N1C(=O)[C@@]2(c3cc(C#CCCO)ccc31)[C@H](C(=O)N1CCN(c3ncccn3)CC1)[C@H]1C(=O)O[C@H](c3ccccc3)[C@H](c3ccccc3)N1[C@@H]2c1ccc(OCCO)cc1", "class": "HIGH"}
{"compound": "CC1C2C(CCCO)=CC(C3C(=O)N(C(N)=O)C(=O)C23)N1Cc1cccc(OC(F)(F)F)c1 (centres undefined)", "class": "HIGH"}
{"compound": "C=C(COC)C(=O)CC[C@H](OC(C)=O)c1ccc(CO)o1", "class": "HIGH"}
{"compound": "CCCCC=C[C@@H](NC(=O)C(C)(C)C)c1ccccc1", "class": "LOW"}
{"compound": "CCCCCN1CC=CC23O[C@@H]4/C=C\\CCCOC(=O)C4[C@H]2C(=O)N(CCO)[C@@H]3C1=O (some centres undefined)", "class": "MID"}
{"compound": "CCOC(=O)C[C@H]1[C@H](OC(=O)c2cc3ccccc3oc2=O)[C@@H](NC(=O)c2ccc(-c3ccccc3)cc2)c2cc(OCCCO)ccc2N1C(=O)Cc1ccc(OC)cc1", "class": "HIGH"}
{"compound": "O=C1NC(=O)C2C1C=CC(C(O)C(O)CO)N2Nc1ccccn1 (centres undefined)", "class": "LOW"}
